# assay.system: HIV-1 reverse transcriptase (HIV-1 RT) (HIV-1 M:B_HXB2R)
# Construct: recombinant HIV-1 RT used with commercial ELISA kit (Roche Molecular Biochemicals); mature chains cut from Gag-Pol polyprotein; with p51 RT
# assay.protocol: RT ELISA (DIG-labelled reaction mixture, anti-DIG-POD, ABTS; Roche kit)
# condition.set: 37 °C, 15 h
Reported IC50 values follow for various molecules
reported.property: IC50 (µM)

molecule: CC(=O)N(C)/C=C/c1ccccc1C [5p, (E)-N-(2-methylstyryl)-N-methylacetamide]
reading.unit: µM
reported: 487

molecule: CC(=O)N(/C=C/c1ccccc1Br)Cc1cc(F)cc(F)c1
reading.unit: µM
reported: 97

molecule: CC(=O)N(C)/C=C/c1ccccc1F [5n, (E)-N-(2-fluorostyryl)-N-methylacetamide]
reading.unit: µM
reported: 477

molecule: CC(=O)N(/C=C/c1ccccc1Br)Cc1c(F)cccc1F
reading.unit: µM
reported: 295

molecule: CC(=O)N(C)/C=C/c1ccccc1Br [5c, (E)-N-(2-bromostyryl)-N-methylacetamide]
reading.unit: µM
reported: 339

molecule: COc1ccc(/C=C/N(C)C(C)=O)c(OC)c1
reading.unit: µM
reported: 373

molecule: CC(=O)N(C)/C=C/c1ccccc1Cl [5k, (E)-N-(2-chlorostyryl)-N-methylacetamide]
reading.unit: µM
reported: 434

molecule: CCN(/C=C/c1ccccc1Cl)C(C)=O [5l, (E)-N-(2-chlorostyryl)-N-ethylacetamide]
reading.unit: µM
reported: 521

molecule: O=C(O)P(=O)(O)O [PFA, reference compound]
reading.unit: µM
reported: 5

molecule: CC(=O)N(/C=C/c1ccccc1Br)C(C)=O [5f, (E)-N-(2-bromostyryl)-N-acetylacetamide]
reading.unit: µM
reported: 320

// data source = paper PMC6254728
